Each item that follows carries a reported percent inhibition of viability.
System: NKL (IL-2 2.5 ng/mL)
Assay info: percent inhibition of viability; higher = more inhibition;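 further: normalised to DMSO-only wells as negative and benzethonium chloride as positive control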
Reported conditions: 72 h; 0.1 nM
# number only, unit % dropped from output

Some molecules with known percent inhibition of viability results, for comparison:
[
  {
    "Molecule": "Cn1c(=O)c(F)c(Nc2ccc(I)cc2F)c2c(=O)n(C[C@@H](O)CO)cnc21 [TAK-733] (max concentration tested 1000 nM)",
    "Scale unit": "%",
    "percent inhibition of viability": 0.9
  },
  {
    "Molecule": "CCN1CCN(c2ccc(Nc3cc(N(C)C(=O)Nc4c(Cl)c(OC)cc(OC)c4Cl)ncn3)cc2)CC1 [NVP-BGJ398] (max concentration tested 1000 nM)",
    "Scale unit": "%",
    "percent inhibition of viability": -0.94
  }
]

Entry under review: Cc1cnc(NC(=O)Nc2cc(Br)c(C)cc2OC[C@@H]2CNCCO2)cn1 [Rabusertib] (max concentration tested 1000 nM) . Reported percent inhibition of viability?
-16.6

# iterate: CO[C@H]1C[C@@H]2CC[C@@H](C)[C@@](O)(O2)C(=O)C(=O)N2CCCC[C@H]2C(=O)O[C@H]([C@H](C)C[C@@H]2CC[C@@H](OC(=O)C(C)(CO)CO)[C@H](OC)C2)CC(=O)[C@H](C)/C=C(\C)[C@@H](O)[C@@H](OC)C(=O)[C@H](C)C[C@H](C)/C=C/C=C/C=C/1C [Temsirolimus] (max concentration tested 100 nM)
32.6

Moving on to the next molecule: Cc1[nH]c2ccccc2c1CCNCc1ccc(/C=C/C(=O)NO)cc1 [Panobinostat] (max concentration tested 1000 nM)
-1.46

Item: CCS(=O)(=O)c1cccc(-c2cc(C(=O)NC3CCN(C)CC3)c(C)c3[nH]c4ncc(C)cc4c23)c1 [TAK-901] (max concentration tested 1000 nM)
-9.65

Queued: O=C(Nc1cccc(Cl)c1)Nc1ncc(CCNc2ncnc3ccsc23)s1 [SNS-314] (max concentration tested 1000 nM)
-9.51

###

In this section we review reported percent inhibition of viability values for a set of compounds.
Tested on: YT (IL-2 2.5 ng/mL)
Assay info: percent inhibition of viability; higher = more inhibition
Reported conditions: 72 h; 1000 nM
Give the quantity in %, number only.

Previously resolved entries follow.
[
  {
    "Compound": "C=CC(=O)Nc1cc2c(Nc3ccc(F)c(Cl)c3)ncnc2cc1OCCCN1CCOCC1 [Canertinib] (max concentration tested 10000 nM)",
    "Scale unit": "%",
    "Endpoint value": 14.8
  },
  {
    "Compound": "Cc1cc(C(=O)NOCCO)c(Nc2ccc(I)cc2F)n(C)c1=O [AZD-8330] (max concentration tested 10000 nM)",
    "Scale unit": "%",
    "Endpoint value": 5.74
  }
]

As a next step, examine the compound that follows.
# get_value(readout= percent inhibition of viability, system= YT (IL-2 2.5 ng/mL)) for COC(=O)c1ccc2c(c1)NC(=O)/C2=C(\Nc1ccc(N(C)C(=O)CN2CCN(C)CC2)cc1)c1ccccc1 [Nintedanib] (max concentration tested 10000 nM)
7.19

###

System: KHYG-1 (IL-2 2.5 ng/mL)
Assay info: percent inhibition of viability; higher = more inhibition
Reported conditions: 72 h; 10 nM
Measured attribute: percent inhibition of viability (%)
Use % as the unit, but write only the number.

Study these solved cases before continuing.
[
  {
    "Compound": "CN(C)c1cc2c(cc1Sc1nc3c(N)nccc3n1CCNCC(C)(C)C)OCO2 [CUDC-305] (max concentration tested 10000 nM)",
    "Measured attribute": "percent inhibition of viability",
    "Scale unit": "%",
    "Endpoint value": -3.69
  },
  {
    "Compound": "CC[C@]1(O)C[C@@H]2CN(CCc3c([nH]c4ccccc34)[C@@](C(=O)OC)(c3cc4c(cc3OC)N(C)[C@H]3[C@@](O)(C(=O)OC)[C@H](OC(C)=O)[C@]5(CC)C=CCN6CC[C@]43[C@@H]65)C2)C1 [Vinblastine] (max concentration tested 1000 nM)",
    "Measured attribute": "percent inhibition of viability",
    "Scale unit": "%",
    "Endpoint value": 96.7
  },
  {
    "Compound": "Cn1c(=O)c(F)c(Nc2ccc(I)cc2F)c2c(=O)n(C[C@@H](O)CO)cnc21 [TAK-733] (max concentration tested 1000 nM)",
    "Measured attribute": "percent inhibition of viability",
    "Scale unit": "%",
    "Endpoint value": 20.6
  },
  {
    "Compound": "CN(C)C(=O)c1cc2cnc(Nc3ccc(N4CCNCC4)cn3)nc2n1C1CCCC1 [NVP-LEE011] (max concentration tested 10000 nM)",
    "Measured attribute": "percent inhibition of viability",
    "Scale unit": "%",
    "Endpoint value": 0.91
  },
  {
    "Compound": "C=CC(=O)Nc1cc2c(Nc3ccc(F)c(Cl)c3)ncnc2cc1OCCCN1CCOCC1 [Canertinib] (max concentration tested 10000 nM)",
    "Measured attribute": "percent inhibition of viability",
    "Scale unit": "%",
    "Endpoint value": -6.52
  }
]

Looking for the measured percent inhibition of viability of CN1CCN(c2cc(C(=O)Nc3ccc4c(c3)-c3c(c(C(N)=O)nn3-c3ccc(F)cc3)CC4)c(Cl)cn2)CC1 [PHA 408] (max concentration tested 10000 nM) , can you help?
-8.63

Moving on to COC(=O)c1ccc2c(c1)NC(=O)/C2=C(\Nc1ccc(N(C)C(=O)CN2CCN(C)CC2)cc1)c1ccccc1 [Nintedanib] (max concentration tested 10000 nM)
-3.23
